- TARGET ENTITY: 3',5'-cyclic-AMP phosphodiesterase 4D (Homo sapiens, UniProt Q08499)
- Sequence (Q08499 whole entry): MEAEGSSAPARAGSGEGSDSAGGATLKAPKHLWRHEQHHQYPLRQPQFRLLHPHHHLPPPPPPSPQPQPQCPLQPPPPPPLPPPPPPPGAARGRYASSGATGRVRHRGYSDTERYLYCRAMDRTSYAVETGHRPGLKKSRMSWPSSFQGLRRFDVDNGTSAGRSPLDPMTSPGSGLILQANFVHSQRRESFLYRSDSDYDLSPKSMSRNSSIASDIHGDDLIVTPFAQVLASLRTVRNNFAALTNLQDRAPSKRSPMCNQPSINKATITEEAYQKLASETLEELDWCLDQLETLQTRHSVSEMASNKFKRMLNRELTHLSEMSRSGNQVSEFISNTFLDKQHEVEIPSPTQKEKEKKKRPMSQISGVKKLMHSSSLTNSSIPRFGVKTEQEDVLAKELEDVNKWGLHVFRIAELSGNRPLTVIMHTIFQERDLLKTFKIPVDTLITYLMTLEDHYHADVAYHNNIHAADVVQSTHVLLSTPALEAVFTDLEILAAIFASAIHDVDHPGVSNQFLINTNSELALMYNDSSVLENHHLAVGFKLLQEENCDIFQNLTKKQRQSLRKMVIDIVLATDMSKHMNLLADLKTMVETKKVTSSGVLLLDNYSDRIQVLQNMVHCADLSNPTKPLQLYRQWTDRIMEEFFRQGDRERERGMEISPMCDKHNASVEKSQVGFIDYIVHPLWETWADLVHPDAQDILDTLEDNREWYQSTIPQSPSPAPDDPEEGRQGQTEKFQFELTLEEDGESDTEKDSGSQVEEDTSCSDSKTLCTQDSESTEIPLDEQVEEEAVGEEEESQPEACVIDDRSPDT
- ASSAY REMARKS: Inhibition of recombinant human PDE4D expressed in Escherichia coli assessed as increase in cAMP levels at 500 uM after 60 mins by BIOMOLGREEN dye-based assay

{"columns": ["MOLECULE", "inhibition [%]"],
 "data": [
  ["COc1cc(=O)[nH]nc1Cc1ccccc1", 43],
  ["CC1=NNC(=O)C(N2CCN(C)CC2)C1 (stereo not given)", 38],
  ["CC1=NNC(=O)C(c2[nH]c3ccccc3c2C)C1 (stereo not given)", 89],
  ["CC1=NN(C)C(=O)C(N2CCOCC2)C1 (stereo not given)", 94],
  ["COc1ccc(Cc2n[nH]c(=O)cc2OCc2ccccc2)cc1OC", 67]
]}
